Ref: patent US11364247B2

experiment: Trial B: pharmacokinetics following repeated once-daily doses over 8 days in healthy young male subjects; format: in vivo, human; conditions: male, human, plasma, oral; last dose of 8-day repeated 2400 mg o.d. eslicarbazepine acetate; read-out: Median tmax
Readout: tmax
Please provide the amount together with its unit, number first.

Q: Form field: reported tmax of NC(=O)N1c2ccccc2C[C@H](O)c2ccccc21 [eslicarbazepine]
A: 2 h
